- Tested on: S. cerevisiae Mot1-301 ts growth rescue, BacTiter-Glo ATP luminescence
- measurement.protocol: restored Mot1-301 yeast growth at 38.5C – whole organism, S. cerevisiae, Mot1-301 ts mutant, luminescence, dose retest, SUMOylation pathway inhibitor project, confirmation (AID 463204);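 also: growth at restrictive 38.5 degrees C of Mot1-301 OY566 strain; actives raise luminescence by restoring growth of the ts mutant at high temperature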
Active and inactive are the calls of the source.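 The calls were made as follows: active = AC50 no more than ten times the top concentration tested, that is within one log above it; inconclusive = flat curve fit with activity between 30% and 70%, or invalid poor fit; inactive = AC50 beyond ten times the top tested dose.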
Labels: T (active), F (inactive)

- molecule: "CC1(C)C(C=C(Cl)Cl)C1C(=O)OCc1cccc(Oc2ccccc2)c1 (stereo unspecified)"
  group.label: "F"
- molecule: "Cc1ccc(NC(=O)CN(C)C(=O)c2cccc(Br)c2)cc1"
  group.label: "F"
- molecule: "NC(=S)N/N=C/c1cccc(O)c1O"
  group.label: "F"
- molecule: "O=S(=O)(Nc1cccc2cn[nH]c12)c1ccc(F)cc1"
  group.label: "F"
- molecule: "COC(=O)C1(Cc2cc(-c3ccccc3)no2)CCN(C(=O)OC(C)(C)C)CC1"
  group.label: "F"
- molecule: "COc1ccc(NC(=O)c2cc(C)no2)cc1Cl"
  group.label: "F"
- molecule: "COCCN1C(=O)/C(=C/c2cc3c(cc2Br)OCO3)NC1=S"
  group.label: "F"
- molecule: "CC(C)(C)n1cnc2cc(NC(=O)c3ccc(Cl)cc3)ccc21"
  group.label: "F"
- molecule: "S=C(NCCc1c[nH]c2ccccc12)NC1CC1"
  group.label: "F"
- molecule: "COc1ccc(CNC(=O)c2cc(=O)c3cc(C)cc(C)c3o2)cc1"
  group.label: "F"
- molecule: "Cc1ccc2c(c1)N(CC(=O)NCCCN1CCN(C)CC1)C(=O)CO2"
  group.label: "F"
- molecule: "CC(=O)Cc1nsc(Nc2cccc(C)c2)n1"
  group.label: "F"
- molecule: "Cc1ccc(C)n1-n1cnc2sc3c(c2c1=O)CCCCC3"
  group.label: "F"
- molecule: "CCC(C)NCCCCOc1cc(C)cc(C(C)C)c1 (stereo unspecified)"
  group.label: "F"
- molecule: "CCOCCCNCc1ccc(OCc2ccc(F)cc2)c(OC)c1"
  group.label: "F"
- molecule: "Cc1ccc(C(=O)N/C(=C\\c2cccs2)C(=O)NCc2ccncc2)cc1"
  group.label: "F"
- molecule: "COc1cccc(CN2CCN(C(=O)c3cccc4ccccc34)CC2)c1OC"
  group.label: "F"
- molecule: "Cc1cccc(C)c1NC(=O)C(Cl)C(=O)c1ccccc1 (stereo unspecified)"
  group.label: "T"
- molecule: "CS(=O)(=O)N1CCCC(C(=O)NCc2ccco2)C1 (stereo unspecified)"
  group.label: "F"
- molecule: "COC(=O)[C@@]12CCCCN1[C@H](c1ccc(-c3cccc(Cl)c3)c(OC)c1)[C@H]1C(=O)N(C)C(=O)[C@H]12"
  group.label: "F"
- molecule: "CCCCC(O)(c1ccc(F)cc1)C(CN1CCOCC1)c1ccc(Cl)cc1 (stereo unspecified)"
  group.label: "T"
- molecule: "CCCN1CCN(CCCNC(=O)CCn2nc(-c3ccccc3)ccc2=O)CC1"
  group.label: "F"
- molecule: "N#CCN(N=Nc1ccccc1)c1ccccc1"
  group.label: "F"
- molecule: "CC(=O)N1CCc2cc(S(=O)(=O)NCCC3=CCCCC3)ccc21"
  group.label: "F"
- molecule: "COc1ccccc1OCCSc1nc2ccccc2n1CCC(=O)O"
  group.label: "F"
- molecule: "Cc1c(NC(C)c2cc(Cl)ccc2O)c(=O)n(-c2ccccc2)n1C (stereo unspecified)"
  group.label: "F"
- molecule: "COC(=O)CNC(=O)CSc1ccccn1"
  group.label: "F"
- molecule: "Cc1[nH]oc(=O)c1N=Nc1c(Cl)cccc1Cl"
  group.label: "T"
- molecule: "CS(=O)(=O)C1=NSC2=NC(=O)/C(=C\\c3ccc(OS(=O)(=O)c4ccccc4)cc3)C(=N)N21"
  group.label: "F"
- molecule: "CCc1nnc(NC(=O)CSc2ccc(-c3ccc(-n4cccn4)cc3)nn2)s1"
  group.label: "F"
- molecule: "CC(Cc1ccc(O)c(O)c1)C(C)Cc1ccc(O)c(O)c1 (stereo unspecified)"
  group.label: "F"
- molecule: "C[n+]1c(-c2ccccc2)cc(CCCCc2cc(-c3ccccc3)[n+](C)c(-c3ccccc3)c2)cc1-c1ccccc1"
  group.label: "F"
- molecule: "COCCn1c(C)cc(C(=O)CN2C(=O)NC3(CCCCCCC3)C2=O)c1C"
  group.label: "F"
- molecule: "COc1ccccc1NC(=O)N1CCN(C(=O)Nc2ccccc2OC)CC1"
  group.label: "F"
- molecule: "CC1CN=C(NCc2ccccc2)S1 (stereo unspecified)"
  group.label: "F"
- molecule: "Cc1cccc(N=C2C(=O)Nc3c(Cl)cccc32)c1"
  group.label: "F"
- molecule: "CCC1CCCCN1C(=O)CSc1nnc(CNC(=O)c2ccco2)o1 (stereo unspecified)"
  group.label: "F"
- molecule: "Cc1cc2c(cc1C)-c1nnc(-c3ccc4ccccc4n3)n1C(C)(C)C2"
  group.label: "F"
- molecule: "CC1=Nc2ccc(C)cc2N(Cc2ccccc2)C(=O)C1"
  group.label: "F"
- molecule: "Oc1c(Cl)cc(Cl)cc1/C=N/c1nc(-c2ccc(Cl)cc2)cs1"
  group.label: "T"
- molecule: "O=C1CN(C(=O)COC(=O)COc2ccc3c(c2)CCC3)c2ccccc2N1"
  group.label: "F"
- molecule: "NC(=O)c1nsc(C(=O)N(Cc2ccc(F)cc2)C(C(=O)NC2CCCC2)c2ccco2)c1N (stereo unspecified)"
  group.label: "F"
- molecule: "O=C(NC1CCc2ccccc21)c1cc(COc2ccc(F)cc2F)on1 (stereo unspecified)"
  group.label: "F"
- molecule: "CCOc1ccc(Cl)cc1CNc1nnnn1CC"
  group.label: "F"
- molecule: "COc1ccc(-c2csc(Nc3cc(C)ccn3)n2)cc1C"
  group.label: "F"
- molecule: "COc1ccc(C(=O)COc2ccc3ccc(=O)oc3c2)cc1"
  group.label: "F"

====

- Test system: S. cerevisiae Mot1-301 ts growth rescue, BacTiter-Glo ATP luminescence
- measurement.protocol: restored Mot1-301 yeast growth at 38.5C – whole organism, S. cerevisiae, Mot1-301 ts mutant, luminescence, dose retest, SUMOylation pathway inhibitor project, confirmation (AID 463204);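 also: growth at restrictive 38.5 degrees C of Mot1-301 OY566 strain; actives raise luminescence by restoring growth of the ts mutant at high temperature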
Active and inactive are the calls of the source.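 Rule for the calls: active = AC50 no more than ten times the top concentration tested, that is within one log above it; inconclusive = flat curve fit with activity between 30% and 70%, or invalid poor fit; inactive = AC50 beyond ten times the top tested dose.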
Labels: yes (1) for active, no (0) for inactive

- compound: "O=Cc1ccc(Oc2cccc(C(F)(F)F)c2)nc1"
  target.of.assay: "S. cerevisiae Mot1-301 ts growth rescue, BacTiter-Glo ATP luminescence"
  group.label: "no (0)"
- compound: "CC1(C)c2[nH]c3ccccc3c2C[C@H]2C(=O)N(Cc3cccc(F)c3)C(=O)N21"
  target.of.assay: "S. cerevisiae Mot1-301 ts growth rescue, BacTiter-Glo ATP luminescence"
  group.label: "no (0)"
- compound: "Cc1ccc(N(C(=O)Cn2nnc3ccccc32)C(C(=O)NC2CCCCC2)c2cn(C)nc2C)cc1 (stereo unspecified)"
  target.of.assay: "S. cerevisiae Mot1-301 ts growth rescue, BacTiter-Glo ATP luminescence"
  group.label: "no (0)"
- compound: "COc1ccc2c(c1)[C@H]1[C@H](CO2)[C@H](c2ccccc2)[C@]2(C)C(=O)Nc3cc(C)ccc3C(=O)N12"
  target.of.assay: "S. cerevisiae Mot1-301 ts growth rescue, BacTiter-Glo ATP luminescence"
  group.label: "yes (1)"
- compound: "O=C(CN1CCN(C(=O)c2ccccc2)CC1)Nc1ncc(Br)cc1Br"
  target.of.assay: "S. cerevisiae Mot1-301 ts growth rescue, BacTiter-Glo ATP luminescence"
  group.label: "no (0)"
- compound: "O=C(NCc1ccco1)c1ccc(Br)c(S(=O)(=O)N2CCCCC2)c1"
  target.of.assay: "S. cerevisiae Mot1-301 ts growth rescue, BacTiter-Glo ATP luminescence"
  group.label: "no (0)"
- compound: "COc1ccc2nc(NC(=O)c3cc(S(=O)(=O)N4CCOCC4)ccc3C)sc2c1"
  target.of.assay: "S. cerevisiae Mot1-301 ts growth rescue, BacTiter-Glo ATP luminescence"
  group.label: "no (0)"
- compound: "CC1=CC(=O)C(C(C)C)=C/C1=N/OS(=O)(=O)c1ccccc1"
  target.of.assay: "S. cerevisiae Mot1-301 ts growth rescue, BacTiter-Glo ATP luminescence"
  group.label: "yes (1)"
- compound: "CC1(C)CC(=O)C(C(=O)c2ccccc2)C(=O)C1Cl (stereo unspecified)"
  target.of.assay: "S. cerevisiae Mot1-301 ts growth rescue, BacTiter-Glo ATP luminescence"
  group.label: "no (0)"
- compound: "COc1ccc(-c2cc(C#N)nc(N3CCN(c4ccccc4)CC3)n2)cc1"
  target.of.assay: "S. cerevisiae Mot1-301 ts growth rescue, BacTiter-Glo ATP luminescence"
  group.label: "no (0)"
- compound: "Cc1ccc(S(=O)(=O)/N=C(/Nc2ccc([N+](=O)[O-])cc2[N+](=O)[O-])c2ccccc2)cc1"
  target.of.assay: "S. cerevisiae Mot1-301 ts growth rescue, BacTiter-Glo ATP luminescence"
  group.label: "yes (1)"
- compound: "COc1ccc(Cc2nnc(NCCO)[nH]c2=O)cc1"
  target.of.assay: "S. cerevisiae Mot1-301 ts growth rescue, BacTiter-Glo ATP luminescence"
  group.label: "no (0)"
- compound: "CS(=O)(=O)N(CC(=O)N1CCCC1)c1cccc(Cl)c1Cl"
  target.of.assay: "S. cerevisiae Mot1-301 ts growth rescue, BacTiter-Glo ATP luminescence"
  group.label: "no (0)"
- compound: "Cc1cc(C)n(C(=O)c2ccccc2[N+](=O)[O-])n1"
  target.of.assay: "S. cerevisiae Mot1-301 ts growth rescue, BacTiter-Glo ATP luminescence"
  group.label: "no (0)"
- compound: "COc1cc(NC(=O)c2ccccc2F)c(OC)cc1NC(=O)CN1CCCCC1"
  target.of.assay: "S. cerevisiae Mot1-301 ts growth rescue, BacTiter-Glo ATP luminescence"
  group.label: "no (0)"
- compound: "Cc1cccc(OCc2nnc(SCC(=O)O)n2-c2ccccc2)c1"
  target.of.assay: "S. cerevisiae Mot1-301 ts growth rescue, BacTiter-Glo ATP luminescence"
  group.label: "no (0)"
- compound: "Cc1ccc(S(=O)(=O)Nc2n[nH]nc2C(=O)NC2CCCCC2)cc1"
  target.of.assay: "S. cerevisiae Mot1-301 ts growth rescue, BacTiter-Glo ATP luminescence"
  group.label: "no (0)"
- compound: "COc1ccc(NS(=O)(=O)c2ccc(OCC(=O)N3CCOCC3)cc2)cc1Cl"
  target.of.assay: "S. cerevisiae Mot1-301 ts growth rescue, BacTiter-Glo ATP luminescence"
  group.label: "no (0)"
- compound: "CCN(C(=O)CCS(=O)(=O)c1ccc2c(c1)oc(=O)n2C)c1ccc(OC)cc1"
  target.of.assay: "S. cerevisiae Mot1-301 ts growth rescue, BacTiter-Glo ATP luminescence"
  group.label: "no (0)"
- compound: "CCOc1ccc(-n2cc(C(=O)NCCOC)c3cc(OC)c(OC)cc3c2=O)cc1"
  target.of.assay: "S. cerevisiae Mot1-301 ts growth rescue, BacTiter-Glo ATP luminescence"
  group.label: "no (0)"
- compound: "COc1cc(CN2CCCC(CO)(Cc3cccc(Cl)c3)C2)cc2c1OCO2 (stereo unspecified)"
  target.of.assay: "S. cerevisiae Mot1-301 ts growth rescue, BacTiter-Glo ATP luminescence"
  group.label: "no (0)"
